# test: CCTE_Mundy_HCI_Cortical_Synap_Neur_Matur_SynapseCount: CCTE's Synaptogenesis and Neurite Maturation Assay in rat cortical cells for Synapse Count, Mundy Lab (AID 2284218)
# Experimental: CCTE_Mundy_HCI_Cortical_Synap&Neurite_Matur is a multiplexed, cell-based-readout assay that uses rat primary cortical cells with measurements taken at 288.33 hours after chemical dosing in a microplate: 96-well plate.CCTE_Mundy_HCI_Cortical_Synap_Neur_Matur_SynapseCount is one of eight components of the CCTE_Mundy_HCI_Cortical_Synap&Neurite_Matur assay. […]
Activity calls are given as the source filed them. Rule for the calls: active = hit-call score of the fitted dose curve at least 0.9, where 1 is the maximum; inactive = score below 0.9.
Labels: active, inactive

| compound_string | qualitative_label |
| --- | --- |
| c1ccc2cc3ccccc3cc2c1 | inactive |
| NC(=O)N1c2ccccc2C=Cc2ccccc21 | inactive |
| NNC(=O)c1ccncc1 | inactive |
| C[C@]12C=CC(=O)C=C1CC[C@H]1[C@@H]3C[C@@H](O)[C@](O)(C(=O)CO)[C@@]3(C)C[C@H](O)[C@@]12F | active |
| COc1cc2c(c(OC)c1OC)-c1ccc(OC)c(=O)cc1[C@@H](NC(C)=O)CC2 | active |
| OC(Cn1cncn1)(Cn1cncn1)c1ccc(F)cc1F | inactive |
| Cn1cc[nH]c1=S | inactive |
